# EXPERIMENTAL TARGET: STAT6 protein (Homo sapiens, UniProt P42226)
# Sequence (P42226 1-847): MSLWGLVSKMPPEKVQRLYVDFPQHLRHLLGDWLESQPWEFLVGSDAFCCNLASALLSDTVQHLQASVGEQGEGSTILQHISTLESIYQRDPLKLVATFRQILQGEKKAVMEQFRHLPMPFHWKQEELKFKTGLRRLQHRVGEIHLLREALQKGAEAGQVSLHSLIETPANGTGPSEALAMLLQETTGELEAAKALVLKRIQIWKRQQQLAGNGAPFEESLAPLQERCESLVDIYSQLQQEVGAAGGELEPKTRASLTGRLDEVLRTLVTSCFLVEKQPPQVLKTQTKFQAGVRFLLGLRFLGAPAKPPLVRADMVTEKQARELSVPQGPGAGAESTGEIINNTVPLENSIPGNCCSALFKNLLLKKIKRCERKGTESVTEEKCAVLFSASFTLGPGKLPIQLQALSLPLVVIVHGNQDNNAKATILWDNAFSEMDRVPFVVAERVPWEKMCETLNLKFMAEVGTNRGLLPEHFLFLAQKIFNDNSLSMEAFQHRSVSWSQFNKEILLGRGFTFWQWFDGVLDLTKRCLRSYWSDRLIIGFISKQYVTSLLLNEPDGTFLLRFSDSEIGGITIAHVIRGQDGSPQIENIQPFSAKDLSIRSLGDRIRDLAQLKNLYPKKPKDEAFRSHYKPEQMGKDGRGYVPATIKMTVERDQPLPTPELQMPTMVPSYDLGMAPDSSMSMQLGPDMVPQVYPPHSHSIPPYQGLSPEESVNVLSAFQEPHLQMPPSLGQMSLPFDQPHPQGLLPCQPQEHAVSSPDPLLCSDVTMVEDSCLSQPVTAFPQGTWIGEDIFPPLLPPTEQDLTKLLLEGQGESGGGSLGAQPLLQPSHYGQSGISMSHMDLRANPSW
# ASSAY EXPLANATION: Fluorescence polarization (FP) binding assay, STAT6
# EXPERIMENTAL CONDITIONS: FP competition, 5 nM fluorescein-labeled tracer, 200 nM protein, PBS pH7.4; read-out: Binding STAT6
pKi: −log10 of the molar value.
QUANTITY: pKi

These solved cases illustrate the format of a correct answer.
So, CC(=O)N1CC[C@H]2CC[C@@H](C(=O)N3CCc4cc(Cl)ccc4C3)N2C(=O)[C@@H](NC(=O)c2cc3cc(C(F)(F)P(=O)(O)O)ccc3[nH]2)C1 [Compound 366] ? Its pKi was < 5.00

What the record says about CC(=O)N1CC[C@H]2CC[C@@H](C(=O)N3CCCCC3)N2C(=O)[C@@H](NC(=O)c2cc3cc(C(F)(F)P(=O)(O)O)ccc3s2)C1 [Compound 381] : pKi is < 5.00

The recorded pKi for CC(=O)N1CC[C@H]2CCN(C(=O)[C@@H]3CCCN3C(=O)[C@@H](NC(=O)c3cc4cc(C(F)(F)P(=O)(O)O)ccc4s3)C(C)(C)C)[C@H]2C1 [Compound 90] is < 5.00

Just so you know, measured pKi for N#Cc1cccc(C[C@H](NC(=O)c2cc3cc(C(F)(F)P(=O)(O)O)ccc3s2)C(=O)N2CCC[C@H]2C(=O)N2CCO[C@H](c3ccccc3)C2)c1 [Compound 281] came out at > 7.00

Recorded result, CC(=O)N1CC[C@H]2CC[C@@H](C(=O)N3CCc4ccccc4C3)N2C(=O)[C@@H](NC(=O)c2cc3cc(C(F)(F)P(=O)(O)O)ccc3s2)C1 [Compound 333] , pKi: < 5.00

Further cases:
The compound CC(C)(C)[C@H](NC(=O)c1cc2cc(C(F)(F)P(=O)(O)O)ccc2s1)C(=O)N1CCC[C@H]1C(=O)N1CCCOC(c2ccccc2)C1 (some centres unmarked) [Compound 124] showed pKi equal to 6.00 to 7.00

Record CC(=O)N1CC[C@H]2CC[C@@H](C(=O)N[C@@H](C)c3ccccc3)N2C(=O)[C@@H](NC(=O)c2cc3cc(C(F)(F)P(=O)(O)O)ccc3[nH]2)C1 [Compound 337] . Reported pKi: 5.00 to 6.00

Given item CC(C)(C)[C@H](NC(=O)c1cc2cc(C(F)(F)P(=O)(O)O)ccc2s1)C(=O)N1CCC[C@H]1C(=O)N1CCOC(c2nccs2)C1 (some centres unmarked) [Compound 128] , the value recorded as its pKi is 5.00 to 6.00

Lookup result for CN(C)C(=O)CCN(C(=O)[C@@H]1CCCN1C(=O)[C@@H](NC(=O)c1cc2cc(C(F)(F)P(=O)(O)O)ccc2s1)C(C)(C)C)c1ccc2ccccc2c1 [Compound 317] ; measured pKi: 6.00 to 7.00

For CN1CC[C@H]2CC[C@@H](C(=O)N3CCc4ccccc4C3)N2C(=O)[C@@H](NC(=O)c2cc3cc(C(F)(F)P(=O)(O)O)ccc3s2)C1 [Compound 331] the compound record lists pKi as < 5.00

The reported pKi of the compound CC(C)(C)[C@H](NC(=O)c1cc2cc(C(F)(F)P(=O)(O)O)ccc2s1)C(=O)N1Cc2ccccc2[C@H]1C(=O)N1CC[C@@H](c2ccccc2)C1 [Compound 198] was 6.00 to 7.00
